Molecular target: UniProt:P25101
Sequence (whole entry): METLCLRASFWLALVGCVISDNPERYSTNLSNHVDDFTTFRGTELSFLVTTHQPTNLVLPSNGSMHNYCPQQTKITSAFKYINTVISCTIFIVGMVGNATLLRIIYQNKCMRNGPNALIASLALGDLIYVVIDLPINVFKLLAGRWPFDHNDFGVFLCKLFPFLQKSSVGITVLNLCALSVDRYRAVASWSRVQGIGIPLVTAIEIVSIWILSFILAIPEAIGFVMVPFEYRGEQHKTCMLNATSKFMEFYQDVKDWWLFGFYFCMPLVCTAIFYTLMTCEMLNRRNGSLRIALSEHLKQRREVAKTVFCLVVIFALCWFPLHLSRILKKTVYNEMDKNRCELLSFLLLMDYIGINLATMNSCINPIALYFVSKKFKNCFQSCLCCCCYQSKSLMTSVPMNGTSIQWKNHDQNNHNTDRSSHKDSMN
Assay: Percent inhibition at 10 uM of displacement of radiolabeled endothelin-1 [125-I]ET-1 from membranes prepared from cloned human Endothelin A receptor expressed in mouse erythroleukemic (MEL) cells
Assay type: cell membranes
reported property: inhibition (%)
One number for each entry, in %.

| molecule | inhibition / % |
| --- | --- |
| CN(C)c1cccc2c(S(=O)(=O)Nc3ccc(Cl)cc3)cccc12 | 30 |
| CCNc1cccc2c(S(=O)(=O)Nc3ncc(Br)nc3OC)cccc12 | 95 |
| CN(C)c1cccc2c(S(=O)(=O)Nc3ccc(Br)nn3)cccc12 | 95 |
| Cc1ccc(NS(=O)(=O)c2cccc3c(N(C)C)cccc23)nn1 | 68 |
| CN(C)c1cccc2c(S(=O)(=O)Nc3ncccn3)cccc12 | 54 |

Dear colleague, could you please provide inhibition for the molecules listed below?
1. CCOc1nc(Br)cnc1NS(=O)(=O)c1cccc2c(N(C)C)cccc12
2. CN(C)c1cccc2c(S(=O)(=O)Nc3cnccn3)cccc12
3. COc1nc(Br)cnc1NS(=O)(=O)c1cccc2ccccc12

Result:
92
58
83

Dear colleague, could you please provide inhibition for the molecules listed below?
1. CN(C)c1cccc2c(S(=O)(=O)Nc3cnc(Br)nc3)cccc12
2. CN(C)c1cccc2c(S(=O)(=O)Nc3ccc(Br)nc3)cccc12
3. CN(C)c1cccc2c(S(=O)(=O)Nc3cnc(Cl)cn3)cccc12
4. CN(C)c1cccc2c(S(=O)(=O)Nc3ccc(Cl)cn3)cccc12
5. Cc1nc(Br)cnc1NS(=O)(=O)c1cccc2c(N(C)C)cccc12
6. CCOc1ccc(NS(=O)(=O)c2cccc3c(N(C)C)cccc23)nn1
7. COc1nc(Cl)cnc1NS(=O)(=O)c1cccc2c(N(C)C)cccc12

Result:
88
95
97
95
96
64
97

Dear colleague, could you please provide inhibition for the molecules listed below?
1. COc1nc(Br)cnc1NS(=O)(=O)c1cccc2c(N(C)C)cccc12
2. Cc1noc(NS(=O)(=O)c2cccc3c(N(C)C)cccc23)c1C [BMS-182874]
3. CN(C)c1cccc2c(S(=O)(=O)Nc3ncc(Cl)cn3)cccc12
4. CN(C)c1cccc2c(S(=O)(=O)Nc3ncc(Br)cn3)cccc12

Result:
1: 93; 2: 98; 3: 84; 4: 80

###

For each entry below, report its IC50 value.
Target: Endothelin-1 receptor (Homo sapiens)
Assay: Inhibition of specific binding of [125-I]ET-1 to human endothelin A receptor
Answers are plain numbers, in nM.

// below: answered compounds
| compound smiles | IC50 (nM) |
| --- | --- |
| CCc1nc(Br)cnc1NS(=O)(=O)c1cccc2c(N(C)C)cccc12 | 2510 |
| CN(C)c1cccc2c(S(=O)(=O)Nc3ccc(Br)cn3)cccc12 | 1580 |
| CN(C)c1cccc2c(S(=O)(=O)Nc3cnc(Br)nc3)cccc12 | 631 |
| CN(C)c1cccc2c(S(=O)(=O)Nc3ccc(Cl)nc3)cccc12 | 1260 |

Dear colleague, could you please provide IC50 for the compounds listed below?
1. CN(C)c1cccc2c(S(=O)(=O)Nc3ccc(Br)cc3)cccc12
2. Cc1ccc(NS(=O)(=O)c2cccc3c(N(C)C)cccc23)nn1
3. CN(C)c1cccc2c(S(=O)(=O)Nc3ncc(Br)cn3)cccc12
4. CN(C)c1cccc2c(S(=O)(=O)Nc3ccc(Br)nc3)cccc12
5. Cc1cc(Cl)nnc1NS(=O)(=O)c1cccc2c(N(C)C)cccc12
6. CNc1cccc2c(S(=O)(=O)Nc3ncc(Br)nc3OC)cccc12
7. COc1nc(C)cnc1NS(=O)(=O)c1cccc2c(N(C)C)cccc12

Result:
[3160, 1580, 2000, 251, 398, 15.8, 7.94]

Dear colleague, could you please provide IC50 for the compounds listed below?
1. CCOc1nc(Br)cnc1NS(=O)(=O)c1cccc2c(N(C)C)cccc12
2. CN(C)c1cccc2c(S(=O)(=O)Nc3ccc(Cl)nn3)cccc12
3. CCNc1cccc2c(S(=O)(=O)Nc3ncc(Br)nc3OC)cccc12
4. Cc1cc(NS(=O)(=O)c2cccc3c(N(C)C)cccc23)nnc1Cl
5. CN(C)c1cccc2c(S(=O)(=O)Nc3ccc(I)cn3)cccc12

Result:
1: 501; 2: 200; 3: 2.51; 4: 5010; 5: 5010

Dear colleague, could you please provide IC50 for the compounds listed below?
1. CCOc1ccc(NS(=O)(=O)c2cccc3c(N(C)C)cccc23)nn1
2. CN(C)c1cccc2c(S(=O)(=O)Nc3ncc(Cl)cn3)cccc12
3. CN(C)c1cccc2c(S(=O)(=O)Nc3ccc(Br)nn3)cccc12
4. CN(C)c1cccc2c(S(=O)(=O)Nc3ccc(Cl)cc3)cccc12
5. CN(C)c1cccc2c(S(=O)(=O)Nc3ncc(Br)[nH]c3=O)cccc12

Result:
[3980, 1580, 251, 7940, 5010]

Problem: Specify IC50 for Cc1cnc(NS(=O)(=O)c2cccc3c(N(C)C)cccc23)cn1 and stop.
Result: 1260

###

Target: Endothelin-1 receptor (Homo sapiens)
Sequence (whole entry): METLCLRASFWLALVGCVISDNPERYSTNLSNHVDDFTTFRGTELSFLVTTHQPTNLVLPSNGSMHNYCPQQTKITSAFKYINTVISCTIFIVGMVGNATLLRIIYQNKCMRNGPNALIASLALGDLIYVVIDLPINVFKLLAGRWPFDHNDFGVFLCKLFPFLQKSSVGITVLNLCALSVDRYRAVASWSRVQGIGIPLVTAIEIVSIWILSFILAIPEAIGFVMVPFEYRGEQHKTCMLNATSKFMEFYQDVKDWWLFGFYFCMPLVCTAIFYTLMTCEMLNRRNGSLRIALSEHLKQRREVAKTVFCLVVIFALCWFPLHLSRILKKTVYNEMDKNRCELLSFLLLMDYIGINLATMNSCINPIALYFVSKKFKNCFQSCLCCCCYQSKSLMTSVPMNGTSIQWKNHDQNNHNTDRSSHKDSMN
Experiment: Percent inhibition at 10 uM of displacement of radiolabeled endothelin-1 [125-I]ET-1 from membranes prepared from cloned human Endothelin A receptor expressed in mouse erythroleukemic (MEL) cells
Format: cell membranes
reported property: inhibition

// below: answered compounds
| compound smiles | inhibition |
| --- | --- |
| CCc1nc(Br)cnc1NS(=O)(=O)c1cccc2c(N(C)C)cccc12 | 68% |
| CN(C)c1cccc2c(S(=O)(=O)Nc3ccc(Cl)nc3)cccc12 | 81% |
| CN(C)c1cccc2c(S(=O)(=O)Nc3ccc(Cl)nn3)cccc12 | 70% |

Dear colleague, could you please provide inhibition for the compounds listed below?
1. CCN(C)c1cccc2c(S(=O)(=O)Nc3ncc(Br)nc3OC)cccc12
2. CCCc1nc(Br)cnc1NS(=O)(=O)c1cccc2c(N(C)C)cccc12
3. CN(C)c1cccc2c(S(=O)(=O)Nc3ccc(Br)cn3)cccc12
4. CN(C)c1cccc2c(S(=O)(=O)Nc3ccc(Br)cc3)cccc12
5. CN(C)c1cccc2c(S(=O)(=O)Nc3ccc(C#N)nn3)cccc12
6. Cc1nc(NS(=O)(=O)c2cccc3c(N(C)C)cccc23)ccc1Br

Result:
99%
< 30%
91%
72%
< 30%
54%

###

Molecular target: Endothelin-1 receptor (Homo sapiens)
Test: Inhibition of specific binding of [125-I]ET-1 to human endothelin A receptor
reported property: IC50 (nM)
Give bare numbers, in nM.

| compound smiles | measurement unit | IC50 |
| --- | --- | --- |
| CN(C)c1cccc2c(S(=O)(=O)Nc3cnc(Cl)cn3)cccc12 | nM | 158 |
| Cc1nc(NS(=O)(=O)c2cccc3c(N(C)C)cccc23)ccc1Br | nM | 10000 |

--- query ---
Problem: Specify IC50 for Cc1nc(Br)cnc1NS(=O)(=O)c1cccc2c(N(C)C)cccc12 and stop.
Result: 631

###

Target: Endothelin-1 receptor (Homo sapiens) (UniProt P25101)
Experiment: Percent inhibition at 10 uM of displacement of radiolabeled endothelin-1 [125-I]ET-1 from membranes prepared from cloned human Endothelin A receptor expressed in mouse erythroleukemic (MEL) cells
Type: cell membranes
reported property: inhibition

// below: answered molecules
| compound smiles | target entity | inhibition |
| --- | --- | --- |
| CN(C)c1cccc2c(S(=O)(=O)Nc3cccnn3)cccc12 | Endothelin-1 receptor (Homo sapiens) (UniProt P25101) | < 30% |
| CN(C)c1cccc2c(S(=O)(=O)Nc3ccccn3)cccc12 | Endothelin-1 receptor (Homo sapiens) (UniProt P25101) | < 30% |

--- query ---
Problem: Specify inhibition for CN(C)c1cccc2c(S(=O)(=O)Nc3cccnc3)cccc12 and stop.
Result: < 30%

Origin of values: ChEMBL document CHEMBL1129980
